Each entry below carries its reported K0.5-mut/K0.5-wt.
molecular target: plasma purified human antithrombin III (AT-III), as complex with unfractionated heparin; assay: ratio of K0.5 to Catalyst Biosciences WT FIXa, AT-III/UFH inhibition
Please reply with the number alone, leaving off any unit.

// solved cases for K0.5-mut/K0.5-wt follow
| protein | K0.5-mut/K0.5-wt |
| --- | --- |
| FIXa-D104N/K106S/I251S/R318Y/R338E/E410N (protein) chain 1: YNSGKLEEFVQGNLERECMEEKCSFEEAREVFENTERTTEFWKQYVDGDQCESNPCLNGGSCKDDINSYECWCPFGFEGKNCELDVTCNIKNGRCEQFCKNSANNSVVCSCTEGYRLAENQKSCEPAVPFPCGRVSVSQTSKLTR chain 2: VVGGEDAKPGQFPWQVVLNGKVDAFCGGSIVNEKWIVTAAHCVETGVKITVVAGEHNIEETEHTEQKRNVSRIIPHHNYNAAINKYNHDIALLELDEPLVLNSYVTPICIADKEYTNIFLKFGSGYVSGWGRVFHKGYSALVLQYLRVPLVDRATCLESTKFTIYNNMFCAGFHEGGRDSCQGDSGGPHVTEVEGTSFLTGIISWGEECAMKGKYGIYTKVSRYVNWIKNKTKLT | 464 |
| FIXa-K228N/K247N/N249S (protein) chain 1: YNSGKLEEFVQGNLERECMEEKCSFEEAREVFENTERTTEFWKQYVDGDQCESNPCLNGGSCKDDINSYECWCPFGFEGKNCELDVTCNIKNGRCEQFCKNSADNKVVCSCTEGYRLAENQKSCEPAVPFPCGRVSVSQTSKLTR chain 2: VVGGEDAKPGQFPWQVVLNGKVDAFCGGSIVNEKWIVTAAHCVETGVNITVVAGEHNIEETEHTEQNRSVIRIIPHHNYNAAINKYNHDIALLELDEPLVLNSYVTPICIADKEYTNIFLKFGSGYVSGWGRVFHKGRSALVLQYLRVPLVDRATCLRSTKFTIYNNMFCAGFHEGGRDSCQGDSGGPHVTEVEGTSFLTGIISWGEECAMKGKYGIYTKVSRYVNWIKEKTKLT | 4.4 |
| FIXa-D104N/K106S/K228N/K247N/N249S (protein) chain 1: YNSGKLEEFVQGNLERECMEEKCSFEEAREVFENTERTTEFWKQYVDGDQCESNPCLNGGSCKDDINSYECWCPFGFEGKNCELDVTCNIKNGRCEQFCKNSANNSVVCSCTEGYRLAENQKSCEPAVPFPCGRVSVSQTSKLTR chain 2: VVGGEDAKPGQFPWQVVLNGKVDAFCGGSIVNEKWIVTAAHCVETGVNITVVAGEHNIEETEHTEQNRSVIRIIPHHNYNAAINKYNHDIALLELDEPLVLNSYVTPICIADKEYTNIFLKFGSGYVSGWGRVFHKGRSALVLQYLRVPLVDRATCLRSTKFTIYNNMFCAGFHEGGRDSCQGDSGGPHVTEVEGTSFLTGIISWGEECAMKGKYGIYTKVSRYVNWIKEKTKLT | 2.1 |

The recorded K0.5-mut/K0.5-wt for entry FIXa-K247N/N249S/R318Y/R338E/E410N (protein) chain 1: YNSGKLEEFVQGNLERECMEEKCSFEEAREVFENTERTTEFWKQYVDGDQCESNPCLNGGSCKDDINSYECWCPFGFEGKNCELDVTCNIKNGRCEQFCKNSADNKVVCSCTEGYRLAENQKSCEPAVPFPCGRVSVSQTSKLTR chain 2: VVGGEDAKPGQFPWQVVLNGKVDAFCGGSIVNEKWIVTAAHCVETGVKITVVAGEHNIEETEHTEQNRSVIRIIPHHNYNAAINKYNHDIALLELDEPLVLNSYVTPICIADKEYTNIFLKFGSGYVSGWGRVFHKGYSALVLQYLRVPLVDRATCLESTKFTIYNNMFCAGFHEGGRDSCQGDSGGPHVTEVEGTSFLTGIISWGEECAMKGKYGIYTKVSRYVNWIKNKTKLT equals 78.3
